# Measurement description: solvent given as SMILES
# Measurement conditions: in CN(C)C=O
Under this convention, 1 (yes) denotes solvation free energy, 298 K strictly below -4 kcal/mol and 0 (no) denotes solvation free energy, 298 K at or above -4 kcal/mol.

molecule=CCCOCCC classification="0 (no)"
molecule=CN(C)c1ccc(C(=O)O)cc1 classification="1 (yes)"
molecule=CCBr classification="0 (no)"

[in] Strictly below -4 kcal/mol in solvation free energy, 298 K? CC(=O)Nc1ccc(O)cc1
[out] 1 (yes)

[in] Strictly below -4 kcal/mol in solvation free energy, 298 K? O=C(O)c1cccnc1Nc1cccc(C(F)(F)F)c1
[out] 1 (yes)

[in] Strictly below -4 kcal/mol in solvation free energy, 298 K? CCCCCCCCCCCCCCCCCCCCCCCCC
[out] 1 (yes)

[in] Strictly below -4 kcal/mol in solvation free energy, 298 K? Clc1ccccc1Cl
[out] 1 (yes)

[in] Strictly below -4 kcal/mol in solvation free energy, 298 K? C=C
[out] 0 (no)

[in] Strictly below -4 kcal/mol in solvation free energy, 298 K? CN1C(=O)C(O)N=C(c2ccccc2)c2cc(Cl)ccc21 (centres undefined)
[out] 1 (yes)

[in] Strictly below -4 kcal/mol in solvation free energy, 298 K? C1=CCCCC1
[out] 0 (no)

====

# Measurement description: solvent given as SMILES
# Measurement conditions: in NCCO
Under this convention, Criterion met denotes solvation free energy, 298 K strictly below -2 kcal/mol and Criterion not met denotes solvation free energy, 298 K at or above -2 kcal/mol.

Worked examples, 7 compounds total:
compound_smiles=C1CCCCCC1 classification="Criterion met"
compound_smiles=Cc1ccccc1C classification="Criterion met"
compound_smiles=c1ccccc1 classification="Criterion met"
compound_smiles=Cc1ccc(C)cc1 classification="Criterion met"
compound_smiles=C1CCCC1 classification="Criterion not met"
compound_smiles=Cc1ccccc1 classification="Criterion met"
compound_smiles=C=CCCCCC classification="Criterion not met"

For the next question, use this compound.
[in] Strictly below -2 kcal/mol in solvation free energy, 298 K? C1CCCCC1
[out] Criterion not met

====

# Measurement description: solvent given as SMILES
# Measurement conditions: in O=CN1CCOCC1
Parameter solvation free energy, 298 K: see the listing below.
Numeric answer only, unit kcal/mol assumed.

compound_smiles=CC(C)C=O reading=-3.63
compound_smiles=S reading=-1.81
compound_smiles=C1CCCC1 reading=-2.22

[in] Read off the recorded solvation free energy, 298 K for O=C=O
[out] -0.71

====

# Measurement description: solvent given as SMILES
# Measurement conditions: in CC(C)CC(C)(C)C
Under this convention, met denotes solvation free energy, 298 K strictly below -5 kcal/mol and not met denotes solvation free energy, 298 K at or above -5 kcal/mol.

molecule=S=C=S classification="not met"

[in] Strictly below -5 kcal/mol in solvation free energy, 298 K? C1CCCCC1
[out] not met

[in] Strictly below -5 kcal/mol in solvation free energy, 298 K? CCC(O)C(C)C (stereo not given)
[out] not met

====

# Measurement description: solvent given as SMILES
# Measurement conditions: in C=CCCCCCCCC
Parameter solvation free energy, 298 K: see the listing below.
Numeric answer only, unit kJ/mol assumed.

compound_smiles=CCCC(C)C reading=-15.2
compound_smiles=C1CCCCC1 reading=-17.2
compound_smiles=O=C=O reading=-1.46

Pending compound:
[in] Read off the recorded solvation free energy, 298 K for CC(C)CC(C)C
[out] -17
